system: NRK; assay: Cytotoxicity against rat NRK cells assessed as cell viability at 50 uM incubated for 48 hrs by MTT assay; format: toxicity, cell-based

compound | Activity
CN1C[C@H](c2ccccc2)[C@]2(CCC/C(=C\c3ccccc3)C2=O)[C@]12C(=O)Nc1ccccc12 | Non-Toxic
CN1C[C@H](c2ccccc2)[C@H](C(=O)/C=C/c2ccccc2)[C@]12C(=O)Nc1ccc(F)cc12 | Toxic
CN1C[C@H](c2ccccc2)[C@]2(CN(C(=O)OC(C)(C)C)C/C(=C\c3ccccc3)C2=O)[C@]12C(=O)Nc1ccc(F)cc12 | Non-Toxic
CN1C[C@H](c2ccccc2)[C@]2(COC/C(=C\c3ccccc3)C2=O)[C@]12C(=O)Nc1ccc(Cl)cc12 | Non-Toxic
CN1C[C@H](c2ccccc2)[C@]2(CN(C(=O)OC(C)(C)C)C/C(=C\c3ccccc3)C2=O)[C@]12C(=O)Nc1ccccc12 | Non-Toxic
CN1C[C@H](c2ccccc2)[C@]2(COC/C(=C\c3ccccc3)C2=O)[C@]12C(=O)Nc1ccccc12 | Non-Toxic
CN1C[C@H](c2ccccc2)[C@H](C(=O)/C=C/c2ccccc2)[C@]12C(=O)Nc1ccc(Cl)cc12 | Toxic
CN1C[C@H](c2ccccc2)[C@]2(CN(C(=O)OC(C)(C)C)C/C(=C\c3ccccc3)C2=O)[C@]12C(=O)Nc1ccc(Cl)cc12 | Non-Toxic
CN1C[C@H](c2ccccc2)[C@]2(CCC/C(=C\c3ccccc3)C2=O)[C@]12C(=O)Nc1ccc(Cl)cc12 | Non-Toxic
CN1C[C@H](c2ccccc2)[C@]2(CCC/C(=C\c3ccccc3)C2=O)[C@]12C(=O)Nc1ccc(F)cc12 | Non-Toxic
CN1C[C@H](c2ccccc2)C2(CN(C(=O)OC(C)(C)C)C/C(=C\c3ccccc3)C2=O)[C@]12C(=O)c1cccc3cccc2c13 (single isomer, unassigned) | Non-Toxic
CN1C[C@H](c2ccccc2)[C@]2(COC/C(=C\c3ccccc3)C2=O)[C@]12C(=O)Nc1ccc(F)cc12 | Non-Toxic
CN1C[C@H](c2ccccc2)[C@H](C(=O)/C=C/c2ccccc2)[C@]12C(=O)Nc1ccccc12 | Toxic
